# Test system: Plutella xylostella
# PROTOCOL DESCRIPTION: Induction of response in unmated female Plutella xylostella (diamondback moth) assessed as flying moth level at 10 uL measured after 10 min by wind tunnel bioassays (Rvb hexane = 5%)
# Format: functional
Reported values of Activity for individual entries
ASSAY READOUT: Activity (%)

• CCCCCC=O = 5
• CCCCCCO = 5
• CCC/C=C/C=O = 20
• CC/C=C\CCOC(C)=O [(Z)-hex-3-en-1-yl acetate] = 20
• CC/C=C\CCO [CIS-3-HEXENOL] = 10
• C=CC(O)CCC (configuration not stated) = 0
• CCCCCCOC(C)=O [HEXYL ACETATE] = 5

Values compiled from ChEMBL document CHEMBL3045452.
